// provenance: ChEMBL document CHEMBL4339190

A collection of compounds and their measured MIC
test system: Escherichia coli; assay: Antimicrobial activity against Escherichia coli ATCC 25922 assessed as growth inhibition of planktonic forms incubated for 24 hrs; format: organism-based; settings: in vitro
ASSAY READOUT: MIC

INSERT INTO results (chem_smiles, target_system, assay_readout, value) VALUES
  ('Br.COc1cccc(-c2cn3nc(-c4cn(C)c5ccc(Cl)cc45)sc3n2)c1', 'Escherichia coli', 'MIC', '> 100 µg/mL'),
  ('Cn1cc(-c2nn3cc(-c4ccc(C(F)(F)F)cc4)nc3s2)c2ccccc21', 'Escherichia coli', 'MIC', '> 100 µg/mL'),
  ('Br.COc1cccc(-c2cn3nc(-c4c[nH]c5ccccc45)sc3n2)c1', 'Escherichia coli', 'MIC', '> 100 µg/mL'),
  ('FC(F)(F)c1ccc(-c2cn3nc(-c4c[nH]c5ccc(Cl)cc45)sc3n2)cc1', 'Escherichia coli', 'MIC', '> 100 µg/mL'),
  ('Br.Clc1ccc2[nH]cc(-c3nn4cc(-c5ccccc5)nc4s3)c2c1', 'Escherichia coli', 'MIC', '> 100 µg/mL'),
  ('COc1ccc(OC)c(-c2cn3nc(-c4cn(C)c5ccc(Cl)cc45)sc3n2)c1', 'Escherichia coli', 'MIC', '> 100 µg/mL'),
  ('Br.Cn1cc(-c2nn3cc(-c4ccc(F)cc4)nc3s2)c2ccccc21', 'Escherichia coli', 'MIC', '> 100 µg/mL'),
  ('Cn1cc(-c2nn3cc(-c4ccc(F)cc4)nc3s2)c2cc(Cl)ccc21', 'Escherichia coli', 'MIC', '> 100 µg/mL'),
  ('Br.COc1cccc(-c2cn3nc(-c4c[nH]c5ccc(Br)cc45)sc3n2)c1', 'Escherichia coli', 'MIC', '> 100 µg/mL'),
  ('FC(F)(F)c1ccc(-c2cn3nc(-c4c[nH]c5ccc(Br)cc45)sc3n2)cc1', 'Escherichia coli', 'MIC', '> 100 µg/mL'),
  ('Br.Cn1cc(-c2nn3cc(-c4ccccc4)nc3s2)c2cc(Br)ccc21', 'Escherichia coli', 'MIC', '> 100 µg/mL'),
  ('Br.Fc1ccc(-c2cn3nc(-c4c[nH]c5ccc(Cl)cc45)sc3n2)cc1', 'Escherichia coli', 'MIC', '> 100 µg/mL');

---

system: Staphylococcus aureus; test: Antimicrobial activity against Staphylococcus aureus ATCC 25923 assessed as growth inhibition of planktonic forms incubated for 24 hrs; type: organism-based; conditions: in vitro
ASSAY READOUT: MIC

INSERT INTO assay_data (chem_smiles, assay_readout, value) VALUES
  ('Br.COc1ccc(OC)c(-c2cn3nc(-c4c[nH]c5ccc(Cl)cc45)sc3n2)c1', 'MIC', '> 100 µg/mL'),
  ('Cn1cc(-c2nn3cc(-c4ccc([N+](=O)[O-])cc4)nc3s2)c2ccccc21', 'MIC', '> 100 µg/mL'),
  ('Br.Cn1cc(-c2nn3cc(-c4ccc(F)cc4)nc3s2)c2ccccc21', 'MIC', '> 100 µg/mL'),
  ('Br.COc1cccc(-c2cn3nc(-c4cn(C)c5ccc(Br)cc45)sc3n2)c1', 'MIC', '> 100 µg/mL'),
  ('Br.Fc1ccc(-c2cn3nc(-c4c[nH]c5ccccc45)sc3n2)cc1', 'MIC', '> 100 µg/mL'),
  ('Br.COc1cccc(-c2cn3nc(-c4cn(C)c5ccc(Cl)cc45)sc3n2)c1', 'MIC', '> 100 µg/mL'),
  ('FC(F)(F)c1ccc(-c2cn3nc(-c4c[nH]c5ccc(Cl)cc45)sc3n2)cc1', 'MIC', '> 100 µg/mL'),
  ('Br.Cn1cc(-c2nn3cc(-c4ccccc4)nc3s2)c2ccccc21', 'MIC', '> 100 µg/mL'),
  ('Br.Cn1cc(-c2nn3cc(-c4ccccc4)nc3s2)c2cc(Br)ccc21', 'MIC', '> 100 µg/mL'),
  ('Cn1cc(-c2nn3cc(-c4ccc(C(F)(F)F)cc4)nc3s2)c2cc(Cl)ccc21', 'MIC', '> 100 µg/mL'),
  ('Br.Clc1ccc2[nH]cc(-c3nn4cc(-c5ccccc5)nc4s3)c2c1', 'MIC', '> 100 µg/mL'),
  ('Br.c1ccc(-c2cn3nc(-c4c[nH]c5ccccc45)sc3n2)cc1', 'MIC', '> 100 µg/mL'),
  ('Br.COc1cccc(-c2cn3nc(-c4cn(C)c5ccccc45)sc3n2)c1', 'MIC', '> 100 µg/mL'),
  ('FC(F)(F)c1ccc(-c2cn3nc(-c4c[nH]c5ccccc45)sc3n2)cc1', 'MIC', '> 100 µg/mL'),
  ('Br.O=[N+]([O-])c1ccc(-c2cn3nc(-c4c[nH]c5ccc(Cl)cc45)sc3n2)cc1', 'MIC', '> 100 µg/mL'),
  ('Br.COc1ccc(OC)c(-c2cn3nc(-c4cn(C)c5ccccc45)sc3n2)c1', 'MIC', '> 100 µg/mL'),
  ('Br.Cn1cc(-c2nn3cc(-c4ccc(F)cc4)nc3s2)c2cc(Br)ccc21', 'MIC', '> 100 µg/mL'),
  ('Br.COc1ccc(OC)c(-c2cn3nc(-c4c[nH]c5ccccc45)sc3n2)c1', 'MIC', '> 100 µg/mL'),
  ('FC(F)(F)c1ccc(-c2cn3nc(-c4c[nH]c5ccc(Br)cc45)sc3n2)cc1', 'MIC', '> 100 µg/mL'),
  ('Br.Fc1ccc(-c2cn3nc(-c4c[nH]c5ccc(Br)cc45)sc3n2)cc1', 'MIC', '> 100 µg/mL');

---

# MIC per record follows
tested on: Pseudomonas aeruginosa; test: Antimicrobial activity against Pseudomonas aeruginosa ATCC 15442 assessed as growth inhibition of planktonic forms incubated for 24 hrs; assay type: organism-based; details: in vitro
ASSAY READOUT: MIC

INSERT INTO results (chem_smiles, value) VALUES
  ('Br.Fc1ccc(-c2cn3nc(-c4c[nH]c5ccc(Cl)cc45)sc3n2)cc1', '> 100 µg/mL'),
  ('Br.Fc1ccc(-c2cn3nc(-c4c[nH]c5ccccc45)sc3n2)cc1', '> 100 µg/mL'),
  ('Br.Brc1ccc2[nH]cc(-c3nn4cc(-c5ccccc5)nc4s3)c2c1', '> 100 µg/mL'),
  ('Br.Cn1cc(-c2nn3cc(-c4ccc(F)cc4)nc3s2)c2cc(Br)ccc21', '> 100 µg/mL'),
  ('Br.O=[N+]([O-])c1ccc(-c2cn3nc(-c4c[nH]c5ccc(Cl)cc45)sc3n2)cc1', '> 100 µg/mL'),
  ('Cn1cc(-c2nn3cc(-c4ccc([N+](=O)[O-])cc4)nc3s2)c2ccccc21', '> 100 µg/mL');

---

tested on: Staphylococcus epidermidis; experiment: Antibiofilm activity against Staphylococcus epidermidis ATCC 12228 incubated for 24 hrs by crystal violet-staining based assay; format: functional
ASSAY READOUT: inhibition

INSERT INTO measurements (chem_smiles, value) VALUES
  ('Br.COc1cccc(-c2cn3nc(-c4cn(C)c5ccc(Br)cc45)sc3n2)c1', 'Dose-dependent effect'),
  ('Br.Cn1cc(-c2nn3cc(-c4ccc([N+](=O)[O-])cc4)nc3s2)c2cc(Br)ccc21', 'Dose-dependent effect'),
  ('Br.Cn1cc(-c2nn3cc(-c4ccccc4)nc3s2)c2cc(Br)ccc21', 'Dose-dependent effect'),
  ('Cn1cc(-c2nn3cc(-c4ccccc4)nc3s2)c2cc(Cl)ccc21', 'Dose-dependent effect'),
  ('Br.Cn1cc(-c2nn3cc(-c4ccc(F)cc4)nc3s2)c2ccccc21', 'Dose-dependent effect'),
  ('Br.Cn1cc(-c2nn3cc(-c4ccccc4)nc3s2)c2ccccc21', 'Dose-dependent effect'),
  ('O=[N+]([O-])c1ccc(-c2cn3nc(-c4c[nH]c5ccccc45)sc3n2)cc1', 'Dose-dependent effect'),
  ('COc1ccc(OC)c(-c2cn3nc(-c4cn(C)c5ccc(Cl)cc45)sc3n2)c1', 'Dose-dependent effect'),
  ('Cn1cc(-c2nn3cc(-c4ccc([N+](=O)[O-])cc4)nc3s2)c2cc(Cl)ccc21', 'Dose-dependent effect'),
  ('Br.COc1ccc(OC)c(-c2cn3nc(-c4c[nH]c5ccc(Cl)cc45)sc3n2)c1', 'Dose-dependent effect');

---

system: Staphylococcus aureus; assay: Antibiofilm activity against Staphylococcus aureus ATCC 6538 incubated for 24 hrs by crystal violet-staining based assay; assay type: functional
ASSAY READOUT: inhibition

INSERT INTO measurements (chem_smiles, assay_readout, value) VALUES
  ('Br.COc1ccc(OC)c(-c2cn3nc(-c4c[nH]c5ccc(Br)cc45)sc3n2)c1', 'inhibition', 'Dose-dependent effect'),
  ('Br.Fc1ccc(-c2cn3nc(-c4c[nH]c5ccccc45)sc3n2)cc1', 'inhibition', 'Dose-dependent effect'),
  ('Br.COc1ccc(OC)c(-c2cn3nc(-c4cn(C)c5ccccc45)sc3n2)c1', 'inhibition', 'Dose-dependent effect');
